Quick reference for PBM binding z-score among some sequences
Test system: PXR:RXRa (NR concentration 270 nM, RXRa partner concentration 90 nM)
assay: PBM binding z-score (relative to random genomic background probes); higher = stronger binding; sequences stand for … in GC…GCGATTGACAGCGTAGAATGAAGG
Just the number, please.

Solved entries (count: 6):
sequence.input: CATACAGGGTCAGCTAGGCCAGATTAGGGACGGC
PBM binding z-score: 2.26
--
sequence.input: AATACAGGGTCACTAGGCCAAAGTAGGTACGAAT
PBM binding z-score: 3.27
--
sequence.input: CGTCAAAGTTCAAGGTAACGCAACAGAAAGCAGC
PBM binding z-score: 4.06
--
sequence.input: CCGACTGGGGCAGAAAGGTTACCAAACCATCCGG
PBM binding z-score: 0.803
--
sequence.input: TCATATAGGCAATACAGGTGAAAGTCGGCATCTA
PBM binding z-score: 0.419
--
sequence.input: ACAGACAAGTGATGAAGGTAACTCAGGCTATCAT
PBM binding z-score: -0.39

Recorded PBM binding z-score of CCAGACAGGTGATAGGTAACTCAGTCTGGTACGC , please. -0.293
